Each entry below carries its recorded kon.
- Tested System: T1, soluble mouse GPNMB (recombinant extracellular domain) (mouse, UniProt Q99P91 23-502)
- T1 construct: also called moGPNMB; not shown: C-terminal polyhistidine or Avi-His tag
- T1 sequence: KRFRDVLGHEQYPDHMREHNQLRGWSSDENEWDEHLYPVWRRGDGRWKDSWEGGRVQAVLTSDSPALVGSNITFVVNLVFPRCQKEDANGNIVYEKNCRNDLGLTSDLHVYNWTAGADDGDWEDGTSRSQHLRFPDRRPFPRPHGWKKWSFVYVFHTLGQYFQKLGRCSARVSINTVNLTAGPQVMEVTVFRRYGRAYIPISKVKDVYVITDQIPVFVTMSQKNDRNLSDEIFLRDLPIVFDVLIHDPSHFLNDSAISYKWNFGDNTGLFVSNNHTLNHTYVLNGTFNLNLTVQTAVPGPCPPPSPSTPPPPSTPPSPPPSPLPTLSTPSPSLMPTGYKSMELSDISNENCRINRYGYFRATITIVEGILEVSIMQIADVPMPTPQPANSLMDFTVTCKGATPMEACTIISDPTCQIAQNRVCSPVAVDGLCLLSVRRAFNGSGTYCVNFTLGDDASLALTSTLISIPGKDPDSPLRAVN
- Test: SPR Biacore, IgG captured
Reported Metric: kon (M⁻¹ s⁻¹)

INSERT INTO results (binder, quantitative_result) VALUES
  ('anti-GPNMB antibody GPN-85 (antibody, V domains shown) VH: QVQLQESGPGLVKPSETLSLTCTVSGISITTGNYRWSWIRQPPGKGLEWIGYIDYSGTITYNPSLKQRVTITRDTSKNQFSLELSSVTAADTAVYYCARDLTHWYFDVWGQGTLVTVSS VL: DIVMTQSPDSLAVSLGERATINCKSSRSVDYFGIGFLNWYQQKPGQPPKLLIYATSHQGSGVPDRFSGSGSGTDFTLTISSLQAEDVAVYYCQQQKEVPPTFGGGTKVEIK', 140000),
  ('anti-GPNMB antibody GPN-89 (antibody, V domains shown) VH: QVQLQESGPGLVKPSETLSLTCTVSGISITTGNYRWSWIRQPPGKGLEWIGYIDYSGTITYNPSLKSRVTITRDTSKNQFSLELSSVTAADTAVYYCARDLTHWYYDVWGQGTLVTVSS VL: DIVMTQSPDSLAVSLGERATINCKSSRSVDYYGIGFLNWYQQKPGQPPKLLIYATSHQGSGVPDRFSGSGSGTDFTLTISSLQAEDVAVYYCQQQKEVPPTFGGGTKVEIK', 160000),
  ('anti-GPNMB antibody GPN-87 (antibody, V domains shown) VH: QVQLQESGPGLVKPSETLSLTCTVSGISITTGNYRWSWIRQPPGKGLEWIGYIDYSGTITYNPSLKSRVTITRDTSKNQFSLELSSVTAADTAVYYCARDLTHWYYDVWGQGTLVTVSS VL: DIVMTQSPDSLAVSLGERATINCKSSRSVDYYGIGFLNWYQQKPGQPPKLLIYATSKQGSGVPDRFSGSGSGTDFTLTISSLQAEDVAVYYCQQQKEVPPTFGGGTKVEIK', 190000);
